Give measured IC50 for each item. Keep answers brief.
System: UACC612
Experiment: IC50 to B-Raf inhibitors in melanoma cell line
Format: cell-based
Settings: Homo sapiens
Give bare numbers, in µM.

# Molecule, IC50 [µM]
records = [
    ("CCCS(=O)(=O)Nc1ccc(F)c(C(=O)c2c[nH]c3ncc(-c4ccc(Cl)cc4)cc23)c1F [PLX-4032, vemurafenib]", 3.78),
]

Recorded IC50 of CCCS(=O)(=O)Nc1ccc(F)c(C(=O)c2c[nH]c3ncc(Cl)cc23)c1F [PLX-4702] , please.
5.48

----------
Tested on: UACC647
Assay: IC50 to B-Raf inhibitors in melanoma cell line
Format: cell-based
Details: Homo sapiens
Observed property: IC50 (µM)
One number for each entry, in µM.

# Compound, IC50 / µM
rows = [
    ("CCCS(=O)(=O)Nc1ccc(F)c(C(=O)c2c[nH]c3ncc(-c4ccc(Cl)cc4)cc23)c1F [PLX-4032, vemurafenib]", 3.37),
]

Kindly consider the entry below.
What measured IC50 goes with CCCS(=O)(=O)Nc1ccc(F)c(C(=O)c2c[nH]c3ncc(Cl)cc23)c1F [PLX-4702] ?
6.72

----------
System: UACC903
Assay: IC50 to B-Raf inhibitors in melanoma cell line
Type: cell-based
Conditions: Homo sapiens, UACC-903
Provide the reported IC50 of each item.
One number for each entry, in nM.

Quick batch: IC50 for everything below.
1. CCCS(=O)(=O)Nc1ccc(F)c(C(=O)c2c[nH]c3ncc(-c4ccc(Cl)cc4)cc23)c1F
2. CCCS(=O)(=O)Nc1ccc(F)c(C(=O)c2c[nH]c3ncc(Cl)cc23)c1F

[250, 250]

FYI, the data here is from patent US20180214449A1.
